Source of measurements: paper PMC5733478

# Assay target: human A3AR (Homo sapiens)
# Construct: expressed in transfected cells
# Sequence (P0DMS8 1-318): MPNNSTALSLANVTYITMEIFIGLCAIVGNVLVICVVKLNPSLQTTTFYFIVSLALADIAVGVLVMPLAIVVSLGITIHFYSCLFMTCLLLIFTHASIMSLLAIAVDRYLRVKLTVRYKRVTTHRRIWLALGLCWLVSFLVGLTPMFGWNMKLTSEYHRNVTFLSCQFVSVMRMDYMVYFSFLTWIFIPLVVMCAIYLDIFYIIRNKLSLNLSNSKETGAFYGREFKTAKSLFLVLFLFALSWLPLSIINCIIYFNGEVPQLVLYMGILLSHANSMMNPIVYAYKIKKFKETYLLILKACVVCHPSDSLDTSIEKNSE
# Assay method text: LOPAC library primary screen: single concentration (10 μM) inhibition of 25 nM CA200645 binding, PHERAstar FS
Counter-ions that a name gives are not always drawn.
# key: entry, value: % 25 nM CA200645 binding
Measured endpoint: % 25 nM CA200645 binding (%)

Molecule	Uom	Recorded measurement
CCCN(CC1CC1)c1nc(C)nc(Nc2c(Cl)cc(Cl)cc2Cl)c1Cl	%	89.7
Cl.NCCS [Cysteamine hydrochloride]	%	89.3
Brc1c(Br)c(Br)c2[nH]cnc2c1Br	%	74.5
CNC1(C)C2CCC(C2)C1(C)C (stereo not drawn) [Mecamylamine hydrochloride]	%	65.4
Cl.O=C(CCCCCN1CCN(c2ccccc2-c2ccccc2)CC1)NC1CCCc2ccccc21 (stereo not drawn) [LP 12 hydrochloride hydrate]	%	93.7
CC(=O)C(C)=NO	%	109.9
O=[N+]([O-])c1cccc2c(Br)n[nH]c12	%	81.2
OCc1cc(C(O)CNCCCCCCOCCCCc2ccccc2)ccc1O (stereo not drawn) [Salmeterol xinafoate]	%	92.6
Cl.Oc1cc2c(cc1O)C(c1ccccc1)CNCC2 (racemic) [(±)-SKF-38393 hydrochloride]	%	99.4
S=C(Nc1ccccc1)Nc1nccs1	%	94.0
C#C[C@]1(O)CC[C@H]2[C@@H]3CCC4=Cc5nc6nc7ccccc7n6cc5C[C@]4(C)[C@H]3CC[C@@]21C	%	67.3
Oc1cc(O)cc(/C=C/c2ccc(O)c(O)c2)c1	%	79.1
